# assayComment: Stability in rat brain homogenate assessed as compound remaining measured after 120 mins
# Type: ADME, tissue-based
# testContext: read-out: Stability
readout: remaining at 2 h
Note: state the figure and append the unit.

The cases that follow already have their remaining at 2 h on record.
>>> df
                structuresmiles           readout  measurement
0  COc1ccc2[nH]cc(CCN3CCC3)c2c1  remaining at 2 h          98%
1    c1ccc2c(CCN3CCC3)c[nH]c2c1  remaining at 2 h        91.9%
2    CN(C)CCc1c[nH]c2cccc(O)c12  remaining at 2 h        46.1%
3   Oc1cccc2[nH]cc(CCN3CCC3)c12  remaining at 2 h        56.8%
4   COc1ccc2[nH]cc(CCN(C)C)c2c1  remaining at 2 h         0.3%

Input line: Fill in reported remaining at 2 h for this entry: `CN(C)CCc1c[nH]c2ccccc12`
Output line: 0%
